# target_or_test_system: Lysosomal acid glucosylceramidase (Mus musculus)
# Sequence (P17439 whole entry): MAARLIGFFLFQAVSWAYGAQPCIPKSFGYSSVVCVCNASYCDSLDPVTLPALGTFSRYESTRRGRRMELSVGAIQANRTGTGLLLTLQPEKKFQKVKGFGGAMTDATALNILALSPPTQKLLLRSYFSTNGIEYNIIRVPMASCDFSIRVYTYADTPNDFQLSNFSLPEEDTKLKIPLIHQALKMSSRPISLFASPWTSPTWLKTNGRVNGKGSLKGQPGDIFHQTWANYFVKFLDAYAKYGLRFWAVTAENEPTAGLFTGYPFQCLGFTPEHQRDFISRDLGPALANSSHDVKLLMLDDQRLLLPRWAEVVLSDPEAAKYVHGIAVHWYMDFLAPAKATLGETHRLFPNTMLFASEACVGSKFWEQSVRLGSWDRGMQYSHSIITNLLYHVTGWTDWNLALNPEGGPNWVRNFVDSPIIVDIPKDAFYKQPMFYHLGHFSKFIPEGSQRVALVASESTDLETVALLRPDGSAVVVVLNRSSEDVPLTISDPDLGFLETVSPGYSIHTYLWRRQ
# procedure_details: Compound was tested for inhibitory activity against beta-glucocerebrosidase.
The following molecules are listed with their measured IC50 values.
Give just the number in nM; leave the unit off.

- molecule: "CCCCN[C@@H]1C=C(CO)[C@H](O)C(O)[C@@H]1O (stereo partly drawn)"
  target_or_test_system: "Lysosomal acid glucosylceramidase (Mus musculus)"
  IC50 / nM: 11000
- molecule: "OC1C2O[C@H]2[C@@H](O)C(O)[C@@H]1O (stereo partly drawn)"
  target_or_test_system: "Lysosomal acid glucosylceramidase (Mus musculus)"
  IC50 / nM: 1100
- molecule: "CCCCCCCCCCCCCCN[C@@H]1C=C(CO)[C@H](O)C(O)[C@@H]1O (stereo partly drawn)"
  target_or_test_system: "Lysosomal acid glucosylceramidase (Mus musculus)"
  IC50 / nM: 120

Q. Value lookup for IC50; key = CCCCCCCCCCN[C@@H]1C=C(CO)[C@H](O)C(O)[C@@H]1O (stereo partly drawn)
A. 70

Q. Item CCCCCCN[C@@H]1C=C(CO)[C@H](O)C(O)[C@@H]1O (stereo partly drawn) has what recorded IC50?
A. 300

Q. Look up IC50: CCCCCCCCCCCCC/C=C/[C@@H](O)[C@H](CN[C@@H]1C=C(CO)[C@H](O)C(O)[C@@H]1O)NC(=O)CCCCCCCCCCCCCCC (stereo partly drawn)
A. 300

Q. // query IC50 value for entry CCCCCCCCN[C@@H]1C=C(CO)[C@H](O)C(O)[C@@H]1O (stereo partly drawn)
A. 30

Q. Look up IC50 for this molecule: CCCCCCCCCCCCCCCCCCN[C@@H]1C=C(CO)[C@H](O)C(O)[C@@H]1O (stereo partly drawn)
A. 300

Data origin, for the record: ChEMBL document CHEMBL1149959
